Reference source: ChEMBL document CHEMBL1150987

- System: Mus musculus
- experiment: In vivo antitumor activity as percent tumor response at dose of 0.3 mg/kg, 24 hours post injection of SMT-F tumor in DBA/2 mice at day 7
- Assay type: functional
endpoint_label: Response
Include the unit right after the number.

[[record]]
compound = "CCCCCCOCC1=C(C)c2cc3nc(c4c5[nH]c(cc6[nH]c(cc1n2)c(C)c6CC)c(C)c5C(=O)C4)[C@@H](CCC(=O)OC)[C@@H]3C"
experimental_target = "Mus musculus"
value_observed = "33%"

[[record]]
compound = "CCCCCCOC(C)C1=C(C)c2cc3nc(c(CC(=O)OC)c4[nH]c(cc5[nH]c(cc1n2)c(C)c5CC)c(C)c4C(=O)OC)[C@@H](CCC(=O)OC)[C@@H]3C (some centres undefined)"
experimental_target = "Mus musculus"
value_observed = "0%"

[[record]]
compound = "CCCCCCOC(C)C1=C(C)c2cc3nc(c4c5[nH]c(cc6[nH]c(cc1n2)c(C)c6CC)c(C)c5C(=O)[C@@H]4C(=O)OC)[C@@H](CCC(=O)OC)[C@@H]3C (some centres undefined)"
experimental_target = "Mus musculus"
value_observed = "90%"


Shifting focus to the compound that follows.
Need Response of CCCCCCOC(C)C1=C(C)c2cc3nc(c4c5[nH]c(cc6[nH]c(cc1n2)c(C)c6CC)c(C)c5C(=O)C4)[C@@H](CCC(=O)OC)[C@@H]3C (some centres undefined) , thanks.
100%
